B1: library; a variant is named by its letters at N, in order (parent)
chain: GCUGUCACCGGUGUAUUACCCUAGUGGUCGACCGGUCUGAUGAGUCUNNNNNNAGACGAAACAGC

Variants of: B1
Experiment: normalized RNA/DNA level without ligand (relative to sTRSVctl = 100) (log10 (% of sTRSVctl)); ligand: hypoxanthine (xanthine aptamer); higher = less ribozyme self-cleavage, higher mRNA level
Condition Details: HEK293T, reporter: mCherry (pCS4076), ligand present: no
Observable: normalized RNA/DNA level without ligand (log10)
Output: the number by itself.

I'd like to know its normalized RNA/DNA level without ligand (log10). The variant in question is GGUCUC
1.96

Again, but for GAUUCC
1.92

And what about the variant GUCGCA ?
1.79

Again, but for CAGACA
1.75

And for UGCAGU ?
1.43

Quick one: UGCGCG
1.75

Please do the same for UGGCUA as well.
1.94

Entry to check: ACCAAG
1.5

AUGCUA ?
1.79

Would you kindly repeat that for CCACGC ?
1.86

Same question, AGAAAC this time
1.8

Now give it for UUUCGC too.
1.92

Same again, this time with GAGCGA
1.5

Now consider CUGAAC and answer again.
1.76

Another variant to look at: GCCAUU
1.92

Moving on to UUGGAC
1.92

Next up: UUAGGA
1.66

Another: ACGGAG
1.12

Note, next up: GUGAUC
1.54

Now the same for GGGGGU
1.86

What do we get for AAGCGG ?
1.2

Now try CGAGUU .
1.83

Now consider UCUUUG and answer again.
1.73

Would you kindly repeat that for CAGCCC ?
1.94

Similarly, GGGUUG ?
1.64

Try this variant next: UGACGG
1.49

Subsequent entry: GAAGGG
1.32

Another variant to look at: UGCUCA
1.98

Also, CCGUAG please.
1.35

Also GUUUGA ?
1.75

Another: GACAGA
1.65

Ok, now CAUCUC
2.01

// repeat for CAGUCA and report
1.68

Subsequent entry: CGAGGC
1.89

Now consider AUGAAG .
1.13

Repeat for the following variant: CGUCAA
1.81

Then UUCAUU ?
1.91

Next variant: AUAAUU
1.83

Try GGACUU next.
1.89

Quick one: AAUACU
1.83

Also ACGUUA , if possible.
1.62

Now try UACCCG .
1.69

Likewise for AAGAUC ?
1.92

Thanks! And CUGCAA ?
1.77

Same read-out for UUUUUU ?
1.97

Cool, now UACUAG
1.65
